# Test system: U251 CNS
# PROTOCOL SUMMARY: NCI-60 one-dose screen, 48 h (100 = growth as untreated, 0 = no growth, -100 = all killed)
# SETTINGS: 10 µM unless noted
The panel holds about 83,000 compounds, 20% with a hit somewhere; the sample as a whole holds those more often.
Criterion: growth strictly less than 20%. Met: 1.0. Not met: 0.0.

Check if growth falls below 20% for O=C(Oc1ccc2c(c1)sc1nc(-c3ccccc3)[nH]c(=O)c12)C(F)(F)F .
0.0

Check if growth falls below 20% for CC[C@@H](C(=O)[C@@H](C)[C@@H](O)[C@H](C)[C@@H]1O[C@@H]([C@@H](CC)C(=O)ONC(=O)c2ccccc2O)CC[C@@H]1C)C1O[C@]2(C=CC(=O)[C@]3(CC[C@@](C)([C@H]4CC[C@](O)(CC)[C@H](C)O4)O3)O2)[C@H](C)C[C@@H]1C (stereo partly specified) .
0.0

Check if growth falls below 20% for O=C(Nc1cc(Cl)ccc1O)c1ccccc1Nc1ccnc(C(F)(F)F)c1 .
1.0

More entries:
Check if growth falls below 20% for COc1ccc(C2C3=C(COC3=O)N(CCO)c3cc4c(cc32)OCO4)cc1OC (stereo unspecified) .
0.0

Check if growth falls below 20% for c1cc(OCCN2CCCCC2)ccc1CNc1ccc2nc(CCC3CCCCC3)[nH]c2c1 .
1.0

Check if growth falls below 20% for COc1ccc(/C=C/C(c2cc(OC)c(OC)c(OC)c2)n2cncn2)cc1O (stereo unspecified) .
0.0

Check if growth falls below 20% for CN(C)CCn1c(=O)c2ccccc2n2nc3ccccc3c12 .
0.0

Check if growth falls below 20% for CN(C)CCCn1c2c(c3ccncc3c1=O)C(=O)c1ccccc1-2 .
1.0

Check if growth falls below 20% for CCOC(=O)c1cnn(CC(C)O)c1NC(=O)NCc1ccccc1C(F)(F)F (stereo unspecified) .
0.0

Check if growth falls below 20% for O=S(=O)(Nc1cc(F)cc(F)c1)c1ccc(-c2cnc(C3CC3)o2)cc1 .
0.0

Check if growth falls below 20% for CC/C(=C(\c1ccc(Cl)cc1)c1ccc(OCCN2CCCCC2)cc1)c1ccc(O)cc1 .
1.0

---

# Tested on: LOX IMVI melanoma
# PROTOCOL SUMMARY: NCI-60 one-dose screen, 48 h (100 = growth as untreated, 0 = no growth, -100 = all killed)
# SETTINGS: 10 µM unless noted
Compounds without any hit were thinned out: in the full panel of roughly 83,000, 20% have a hit.
Is growth at least 40%? Then T. If not, F.

Recorded results for 10 compounds are shown here.
Entry Cc1c(O)cc(-c2cnc(N/N=C/c3ccccc3)s2)c(O)c1C : is its growth no less than 40%?
T

Entry O=C1C=CC2(O)OC/C(=C\c3ccccc3)C(O)=C2C1=O (stereo not drawn) : is its growth no less than 40%?
F

Entry C=C1CC[C@@H]2C(C)(C)[C@H](O)CC[C@@]2(C)[C@@H]1COc1ccc2ccc(=O)oc2c1 : is its growth no less than 40%?
F

Entry COc1cc2ncnc(Nc3ccc(F)c(Cl)c3)c2cc1OCC(=O)N1CCOCC1 : is its growth no less than 40%?
T

Entry C#Cc1cccc(Nc2ncnc3cc(NC(=O)CCl)ccc23)c1 : is its growth no less than 40%?
F

Entry CCN(CCNc1ccc(C)c2sc3cc(Cl)ccc3c(=O)c12)CC(C)(C)O : is its growth no less than 40%?
T

Entry COc1cc(/C=N/NC(=O)c2ccc(-n3cc(-c4ccccc4)nn3)cc2)cc(OC)c1OC : is its growth no less than 40%?
F

Entry O=S(=O)(Nc1ccc2ccccc2c1)c1ccc(-c2cnc(C3CC3)o2)cc1 : is its growth no less than 40%?
T

Entry O=C(/C=C/C12c3ccccc3C(c3ccccc31)C1C(=O)NC(=O)C12)c1ccc(Cl)cc1Cl (stereo not drawn) : is its growth no less than 40%?
F

Entry CC1(C)CC[C@]23CC[C@]4(C)[C@H](CC[C@@H]5[C@@]6(C)CCNCC(C)(C)[C@@H]6CC[C@]54C)[C@H]2[C@H]1OC3 : is its growth no less than 40%?
T

More entries:
Entry COc1cc(/C=C/C(=O)N2CCN(C(=O)c3cc(OC)c(OC)c(OC)c3)CC2)ccc1OCCCOc1cc2c(cc1OC)C(=O)N1CCC[C@H]1C=N2 : is its growth no less than 40%?
F

Entry COCCn1cc(-c2nc(-c3cc4cccnc4n3C)cs2)c2ccccc21 : is its growth no less than 40%?
F

---

# Test system: BT-549 breast
# PROTOCOL SUMMARY: NCI-60 one-dose screen, 48 h (100 = growth as untreated, 0 = no growth, -100 = all killed)
# SETTINGS: 10 µM unless noted
About 83,000 compounds went through this panel and 20% of them were active in at least one assay; those are over-represented in the sample as a whole.
ASSAY ENDPOINT: growth (%)
Numeric only. Scale: %

Examples with their reported growth follow.
Entry COc1ccc(/C=C2\c3cc(OC)c(OC)c(OC)c3CC[C@@H]2O)cc1F : growth on BT-549 breast = 23

Entry Cc1nc2sc(C(=O)Nc3ccccn3)c(N)c2cc1C(C)O (centres undefined) : growth on BT-549 breast = 85.1

Entry Cc1sc2nc(NCCN)[nH]c(=O)c2c1C : growth on BT-549 breast = 94.3

Below: the item to evaluate.
Entry CCN(CC)CCn1c2ccc(OC)cc2c2sc3cc(O)ccc3c(=O)c21 : growth on BT-549 breast = 62.7

---

# Tested on: OVCAR-8 ovarian
# PROTOCOL SUMMARY: NCI-60 one-dose screen, 48 h (100 = growth as untreated, 0 = no growth, -100 = all killed)
# SETTINGS: 10 µM unless noted
This is part of a sample that, as a whole, favours compounds with a hit. Of some 83,000 tested, about 20% had one in any assay.
Is growth at least 80%? Then 1. If not, -1.

Entry Cc1ccc(S(=O)(=O)N2CCCN(c3nc(-c4ccccc4)nc4nc(-c5ccccc5)oc34)CC2)cc1 : is its growth no less than 80%?
1

More entries:
Entry CCOC(=O)NCCCC(=O)NCCc1ccccc1 : is its growth no less than 80%?
1

---

# System: HT29 colon
# PROTOCOL SUMMARY: NCI-60 one-dose screen, 48 h
# SETTINGS: 10 µM unless noted
Compounds without any hit were thinned out: in the full panel of roughly 83,000, 20% have a hit. The source made the active and inactive calls. Rule for the calls: active = growth percent below 10; inactive = the rest.
Pick from YES for active, NO for inactive when you respond.

Please state the recorded outcome for this compound: c1ccc(-c2nc3ccccc3[nH]2)c(OCCCCCOc2ccccc2-c2nc3ccccc3[nH]2)c1
NO

Please state the recorded outcome for this compound: CCCC(=O)NC(c1ccc2c(c1)OCO2)c1cc(Cl)c2cccnc2c1O (stereo not given)
NO

Please state the recorded outcome for this compound: CCN(CCNc1ccc(C)c2sc3cc(Cl)ccc3c(=O)c12)CC(C)(C)O
NO

Please state the recorded outcome for this compound: COc1ccc2c(O)c(/C=C3\N=Nc4ncccc43)oc2c1C[C@@H]1CCNC[C@H]1F
YES

Please state the recorded outcome for this compound: CC(C)n1c2ccc(Br)cc2c2c3c(c4c5ccccc5ccc4c21)C(=O)NC3=O
NO

More entries:
Please state the recorded outcome for this compound: CCOC(=O)c1c(C)nc2ccccc2c1/C=C/c1ccc(F)cc1
NO

Please state the recorded outcome for this compound: O=C(NC1CCC(Br)CC1)C1CCCC(S(=O)(=O)NC2CCCCC2)C1 (stereo not given)
NO

---

# Tested on: HCT-116 colon
# PROTOCOL SUMMARY: NCI-60 one-dose screen, 48 h
# SETTINGS: 10 µM unless noted
# Procedure: Growth inhibition of the HCT-116 human tumor cell line is measured as a screen for anti-cancer activity. Cells are grown in 96 well plates and exposed to the test compound for 48 hours. Compounds are tested at a single concentration, which is 10^-5 M for most compounds. The reported endpoint is percent growth (GI% or GIPRCNT), where numbers from 0 - 100% represent growth inhibition, and numbers from -100% - 0 represent cell death. For example, a value of 40 represents 60% growth inhibition. […]
Compounds without any hit were thinned out: in the full panel of roughly 83,000, 20% have a hit. The source made the active and inactive calls. How the source made its calls: active means growth percent below 10; inactive means the rest.
Pick from 1.0 (active), 0.0 (inactive) when you respond.

Recorded results for 2 compounds are shown here.
Please state the recorded outcome for this compound: C#CCOc1cccc(Nc2ncnc3cc(NC(=O)CCl)ccc23)c1
1.0

Please state the recorded outcome for this compound: Fc1cccc(-c2nc(-c3c[nH]c4ncccc34)cs2)c1
0.0

With those in mind, consider the next compound.
Please state the recorded outcome for this compound: Cc1nn(C)c2ncnc(N/N=C/c3cccc(O)c3O)c12
0.0

---

# Test system: SF-295 CNS
# PROTOCOL SUMMARY: NCI-60 one-dose screen, 48 h
# SETTINGS: 10 µM unless noted
The panel holds about 83,000 compounds, 20% with a hit somewhere; the sample as a whole holds those more often. Active and inactive are the calls of the source. How the source made its calls: active means growth percent below 10; inactive means the rest.
Pick from true (1) = active, false (0) = inactive when you respond.

Recorded results for 2 compounds are shown here.
Please state the recorded outcome for this compound: COC1C(O)CC(OC2CC(OC3CC(O[C@@H]4C(=O)c5c(cc6cc(OC7CC(OC8CC(O)C(O)C(C)O8)C(O)C(C)O7)c(C)c(O)c6c5O)CC4[C@H](OC)C(=O)O)OC(C)C3O)OC(C)C2O)OC1C (some centres not stated)
false (0)

Please state the recorded outcome for this compound: Cc1oc(-c2ccc(Cl)cc2)nc1C1=NN(C(=O)c2ccncc2)C(c2ccccc2)C1 (configuration not stated)
false (0)

More entries:
Please state the recorded outcome for this compound: O=C(NCCNC(c1ccccc1)C(NCCNC(=O)c1ccccc1)c1ccccc1)c1ccccc1 (configuration not stated)
false (0)

Please state the recorded outcome for this compound: C=C(C)[C@@H]1CC[C@]2(C(=O)N3CCNCC3)CC[C@]3(C)[C@H](CC[C@@H]4[C@@](C)(CCC(=O)N5CCNCC5)[C@H](C(=C)C)CC[C@]43C)[C@@H]12
false (0)

Please state the recorded outcome for this compound: Cc1ccc(NC(=O)c2cc3ccccc3cc2O)c(C)c1
false (0)

Please state the recorded outcome for this compound: Cc1cc(C(=O)CCCC(=O)c2cc(C)c(O)c(C)c2)cc(C)c1O
false (0)

Please state the recorded outcome for this compound: COc1ccc2c(c1)oc1c(C)c3c(c(C)c12)C(=O)N(CCOS(C)(=O)=O)C3=O
false (0)

Please state the recorded outcome for this compound: Cc1ccc2c(/C=C/C(=O)c3cc(CN4CCOCC4)c(O)c4nc(C)ccc34)cc(CN3CCOCC3)c(O)c2n1
false (0)

Please state the recorded outcome for this compound: COc1ccc(NC(=O)c2ccc(Nc3ncnc4c3cnn4-c3cccc(F)c3)cc2)cc1
false (0)

Please state the recorded outcome for this compound: Cn1c(=O)c2[nH]c(SC/C(=N/O)c3ccc(Br)cc3)nc2n(C)c1=O
false (0)

Please state the recorded outcome for this compound: O=C1/C(=C/c2ccc(Cl)cc2)CN(C(=O)C(Cl)Cl)C/C1=C\c1ccc(Cl)cc1
true (1)
